tested on: HOP-62 NSCLC; test: NCI tumour cell line growth inhibition, 48 h
endpoint name: TGI

O=C(/C=C(\O)c1ccccc1)/C(=C/C(=O)c1ccccc1)NN=C(c1ccccc1)c1ccccc1 | > 100 µM
COc1cc(/C=C\c2ccncc2)cc(OC)c1OC | > 100 µM
C#C[C@H]1CCCCCC1O (stereo partly drawn) | > 100 µM
CCOC(=O)C(NC(=O)CC)(Nc1ccc(S(=O)(=O)Nc2nc(C)cc(C)n2)cc1)C(F)(F)F (stereo not drawn) | > 100 µM
C#CCSc1nc(N)c2ncn(C3OC(COP(=O)(O)O)C(O)C3O)c2n1 (stereo not drawn) | > 239 µM
O/N=C1\CCc2nonc2\C1=N/Nc1ccccc1 | > 100 µM
O=C(NN1C(=O)CSC1c1ccc(F)cc1)C(O)c1ccccc1 (stereo not drawn) | > 100 µM
COc1cc2c(c(OC)c1OC)-c1c(cc3c(c1OC)OCO3)CC(C)C(C)(O)C2OC(=O)c1ccccc1 (stereo not drawn) | > 100 µM
Cc1nc2ccccc2c(=O)n1/N=C(\N=Nc1cccc(Cl)c1)c1ccccc1Cl | > 100 µM
CC1C2CC(C/C2=N/O)C1(C)C (stereo not drawn) | > 100 µM
N#CC1(c2ccccc2)CCN(C2(c3ccccc3)CCCCC2)CC1 | > 100 µM
CC(C)=Nn1cnc(C(=N)C#N)c1N | > 100 µM
Cc1nn(C(=O)c2ccncc2)c2c1C(c1cccc([N+](=O)[O-])c1)SC(N)=N2 (stereo not drawn) | > 10 µM

###

test system: A498 renal; test: NCI tumour cell line growth inhibition, 48 h
endpoint name: TGI (µM)

COc1ccc2c(-c3ccc(OCCN(C)C)cc3)c(Oc3ccc(Cl)cc3)c(=O)oc2c1 | 29.4
C/C=C/[C@H]1O[C@@](O)([C@@H](C)[C@H](O)[C@H](C)[C@H]2OC(=O)/C(OC)=C/C(C)=C/[C@@H](C)[C@@H](O)[C@@H](CC)[C@@H](O)[C@H](C)C/C(C)=C/C=C/[C@@H]2OC)C[C@H](OC2CC(O)C(OC(N)=O)C(C)O2)[C@@H]1C (stereo not given in full) | 33.1
COc1ccc2c(c1)/C(=C\c1c[nH]c3ccc(OC)cc13)C(=O)N2 | 6.47

###

tested on: K-562 leukemia; experiment: NCI tumour cell line growth inhibition, 48 h
List of GI50 values.
endpoint name: GI50

CCSc1nc(N)c(C#N)c(-c2ccco2)c1C#N | 43.7 µM
COc1cc(OC)cc(-c2n/c(=C\c3c(O)[nH]c4ccc(Cl)cc34)cc3c2=Nc2ccccc2-3)c1 | 2.72 µM
OCc1ccc(N2CCCC2)cc1Cl | 8.18 µM

###

system: OVCAR-8 ovarian; assay: NCI tumour cell line growth inhibition, 48 h
List of TGI values.
endpoint name: TGI

C[C@H]1c2ccccc2CN1CCCOc1cc2c(cc1OCC1CC1)C1(CCCC1)C(N)=N2 | 8.83 µM
Cc1ccc(Sc2oc(-c3ccc(C)cc3)nc2[P+](c2ccccc2)(c2ccccc2)c2ccccc2)cc1 | 1.65 µM
Cc1oc2c(c1C(=O)N1CC[C@@H](N)C1)C(=O)c1c(c(O)c3ccccc3c1O)C2=O | 4.65 µM
Nc1ccc(C(=O)N/C(=C\c2cccc([N+](=O)[O-])c2)c2nc3ccc(Cl)cc3[nH]2)cc1 | > 100 µM
Cc1c(C#N)c2nnn(-c3ccccc3)c(=O)n2c1-c1ccccc1 | > 100 µM
Nc1n[nH]c(N)c1N=Nc1ccc(O)cc1 | > 100 µM
CC(=O)C12C[C@](C#N)(N3CCCCCC3)C1C=Cc1ccccc12 (some centres undefined) | > 100 µM
NS(=O)(=O)c1cccc(-c2ccc3c(NC(=O)C4CC4)n[nH]c3c2)c1 | > 25 µM
O=c1cccc(C#CC#CCCCO)o1 | > 35.8 µM
Cc1cc(C)c2c(=N)c3ccccc3n(CCCCCCO)c2n1 | 5.49 µM
CC(C)C(C/C=C1/CC(CO)(COC(=O)C2CCCCC2)OC1=O)C(C)C (centres undefined) | 32.7 µM
COc1cc2c(c(OC)c1OC)-c1c(cc3c(c1OC)OCO3)CC(C)C(C)(O)C2OC(=O)c1ccccc1 (centres undefined) | > 100 µM
CSCCCNC(=O)c1csc(-c2csc(CCNC(=O)CNC(=O)CNC(=O)CNC(=O)OC(C)(C)C)n2)n1 | > 100 µM
N#CC1(c2ccccc2)CCN(C2(c3ccccc3)CCCCC2)CC1 | > 100 µM
CC(=O)Nc1ccc(C(=O)NN2C(=O)C(Cl)C2c2ccc(O)cc2)cc1 (centres undefined) | > 100 µM
COc1cc(OC)cc(-c2n/c(=C\c3c(O)[nH]c4ccc(Cl)cc34)cc3c2=Nc2ccccc2-3)c1 | 15.5 µM
O=C1CCC2(O)C3Cc4ccc(Oc5nnnn5-c5ccccc5)c5c4C2(CCN3CC2CC2)C1O5 (centres undefined) | > 100 µM
O=C1/C(=C/c2cccc(Br)c2)COc2ccc(O)c(O)c21 | 2.86 µM
NC(=O)C12CC3CC(CC(Br)(C3)C1)C2 | > 100 µM
